The reported numbers originate from patent US20240218374.

- Tgt: Spike S1 & S2 ECD (SARS-CoV-2) (UniProt P0DTC2)
- Measurement protocol: filter
- Run conditions: PPdU at 10 (Table 6B says BFdU); other dU Tyr-dU; dC Nap-dC; SB18T0.01, 37 C
Endpoint name: pKd
Friendly reminder that pKd comes from taking -log10 of the concentration in mol/L.

Exercise: Return reported pKd; argument: GGGANANNANGNGNNNGANNGNNNGGANG [26874-29_92]
Solution: 9.74

====

- Tgt: Spike S1 & S2 ECD (SARS-CoV-2) (UniProt P0DTC2)
- Measurement protocol: filter
- Run conditions: NEdU at 14; other dU Tyr-dU; dC Nap-dC; SB18T0.01, 37 C
Endpoint name: Kd (nM)
Your answer is read as nM, so omit the unit and give the number.

Exercise: Sample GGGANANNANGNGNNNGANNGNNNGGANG [26874-29_82] — what was its Kd?
Solution: 0.18

====

- Tgt: Spike S1 & S2 ECD (SARS-CoV-2) (UniProt P0DTC2)
- Measurement protocol: filter
- Run conditions: BPEdU at 10; other dU Tyr-dU; dC Nap-dC; SB18T0.01, 37 C
Endpoint name: Kd (nM)
Write the answer as a number in nM, unit excluded.

Exercise: Field request: Kd | item: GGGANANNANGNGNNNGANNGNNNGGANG [26874-29_151]
Solution: 0.78

====

- Tgt: Spike S1 & S2 ECD (SARS-CoV-2) (UniProt P0DTC2)
- Measurement protocol: filter
- Run conditions: 2NapdU at 14; other dU Tyr-dU; dC Nap-dC; SB18T0.01, 37 C
Endpoint name: Kd (nM)
Kindly answer with a numeric value in nM, unit omitted.

Exercise: Endpoint output: Kd of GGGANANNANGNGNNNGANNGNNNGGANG [26874-29_113] . Value?
Solution: 0.32

====

- Tgt: Spike S1 & S2 ECD (SARS-CoV-2) (UniProt P0DTC2)
- Measurement protocol: filter
- Run conditions: Y=Tyr-dU, p=Nap-dC; SB18T0.01, 37 C
Give measured Kd for each item. Keep answers brief.
// units = nM; emit number, no label

Exercise: Returns the measured Kd for the input sequence. Input: GNGNAANGNANNNNANNNGGNNNGAANGNG [26876-13_15]
Solution: 0.26

Exercise: Ok, now ANNANGNGNNNGANNGNNNGGANGG [26874-29_23]
Solution: 1.6

Exercise: And the next one, NANNANGNGNNNGANNGNNNGGANG [26874-29_24] ?
Solution: 2.1

Exercise: For GGANANNANGNGNNNGANNGNNNGGANG [26874-29_21] then?
Solution: 2.2

Exercise: Likewise for ANNANGNGNNNGANNGNNNGGANG [26874-29_25] ?
Solution: 1.8

Exercise: Same read-out for NANNANGNGNNNGANNGNNNGGANGG [26874-29_22] ?
Solution: 1.4

====

- Tgt: Spike S1 & S2 ECD (SARS-CoV-2) (UniProt P0DTC2)
- Measurement protocol: filter
- Run conditions: Y=Tyr-dU, p=Nap-dC, position 8 2NE-dU; value curated as assigned; Kd/Kd_20 1656
Endpoint name: Kd (nM)
Could you give me the number in nM? Just the number is fine.

Exercise: Hello, I am looking for reported Kd with Spike S1 & S2 ECD (SARS-CoV-2) (UniProt P0DTC2) for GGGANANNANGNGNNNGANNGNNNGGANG [26874-29_128] . Could you help?
Solution: 500

====

- Tgt: Spike S1 & S2 ECD (SARS-CoV-2)
- Measurement protocol: filter
- Run conditions: Y=Tyr-dU, p=Nap-dC, position 14 Trp-dU; Kd/Kd_20 0.30
Endpoint name: pKd
Units for pKd: none; it is -log10 of a concentration expressed in mol/L.

Exercise: Look up pKd: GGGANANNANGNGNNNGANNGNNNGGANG [26874-29_62]
Solution: 9.89

====

- Tgt: Spike S1 & S2 ECD (SARS-CoV-2) (UniProt P0DTC2)
- Measurement protocol: filter
- Run conditions: Y=Tyr-dU, p=Nap-dC, position 7 DCPE-dC; protein construct inferred
Endpoint name: Kd (nM)
# unit: nM | format: bare number

Exercise: Look at this sequence and give its reported Kd. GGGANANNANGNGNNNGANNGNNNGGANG [OH-26874-29_332]
Solution: 0.13

====

- Tgt: Spike S1 & S2 ECD (SARS-CoV-2)
- Measurement protocol: filter
- Run conditions: BFdU at 14 (Table 6B says PPdU); other dU Tyr-dU; dC Nap-dC; SB18T0.01, 37 C
Endpoint name: pKd
Quick note: pKd values are minus log10 of concentrations in mol/L.

Exercise: # value lookup — system Spike S1 & S2 ECD (SARS-CoV-2), readout pKd, item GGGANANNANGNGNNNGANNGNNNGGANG [26874-29_91]
Solution: 9.77

====

- Tgt: Spike S1 & S2 ECD (SARS-CoV-2) (UniProt P0DTC2)
- Measurement protocol: filter
- Run conditions: Y=Tyr-dU, p=Nap-dC, position 24 DPP-dC; protein construct inferred
Endpoint name: pKd
Answer as the number alone; pKd is minus log10 of concentration in mol/L.

Exercise: Need pKd, item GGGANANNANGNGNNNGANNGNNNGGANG [OH-26874-29_330]
Solution: 9.96

====

- Tgt: Spike S1 & S2 ECD (SARS-CoV-2)
- Measurement protocol: filter
- Run conditions: BFdU at 5; other dU Tyr-dU; dC Nap-dC; SB18T0.01, 37 C
Endpoint name: pKd
Please keep in mind that pKd is minus log10 of the molar concentration; only the number is needed.

Exercise: GET /values?readout=pKd&item= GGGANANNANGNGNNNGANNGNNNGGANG [26874-29_86]
Solution: 9.68

====

- Tgt: Spike S1 & S2 ECD (SARS-CoV-2) (UniProt P0DTC2)
- Measurement protocol: filter
- Run conditions: BndU at 23; other dU Tyr-dU; dC Nap-dC; SB18T0.01, 37 C
Endpoint name: Kd (nM)
Output spec: scalar in nM, unitless text.

Exercise: Entry under review: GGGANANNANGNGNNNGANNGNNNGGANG [26874-29_65] . Reported Kd?
Solution: 0.28

====

- Tgt: Spike S1 & S2 ECD (SARS-CoV-2)
- Measurement protocol: filter
- Run conditions: PPdU at 14; other dU Tyr-dU; dC Nap-dC; SB18T0.01, 37 C
Endpoint name: Kd (nM)
Provide the reading as a plain figure in nM.

Exercise: Bench note: what Kd did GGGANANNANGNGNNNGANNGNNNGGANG [26874-29_93] show?
Solution: 0.24

====

- Tgt: Spike S1 & S2 ECD (SARS-CoV-2) (UniProt P0DTC2)
- Measurement protocol: filter
- Run conditions: Y=Tyr-dU, p=Nap-dC, position 12 DCPE-dC; protein construct inferred
Endpoint name: Kd (nM)
Kindly provide the numeric value in nM only, without the unit symbol.

Exercise: Query for Spike S1 & S2 ECD (SARS-CoV-2) (UniProt P0DTC2): what Kd does the record show for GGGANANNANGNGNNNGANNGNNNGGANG [OH-26874-29_333] ?
Solution: 0.11

====

- Tgt: Spike S1 & S2 ECD (SARS-CoV-2)
- Measurement protocol: filter
- Run conditions: BTdU at 23; other dU Tyr-dU; dC Nap-dC; SB18T0.01, 37 C
Endpoint name: Kd (nM)
Form entry: value (nM) — number only.

Exercise: Endpoint output: Kd of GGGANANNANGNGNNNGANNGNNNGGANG [26874-29_124] . Value?
Solution: 0.64

====

- Tgt: Spike S1 & S2 ECD (SARS-CoV-2) (UniProt P0DTC2)
- Measurement protocol: filter
- Run conditions: 2NEdU at 5; other dU Tyr-dU; dC Nap-dC; low plateau
Endpoint name: Kd
Don't forget the unit after the value.

Exercise: Using the record for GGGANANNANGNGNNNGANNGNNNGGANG [26874-29_126] , report its Kd.
Solution: 0.65 nM

====

- Tgt: Spike S1 & S2 ECD (SARS-CoV-2) (UniProt P0DTC2)
- Measurement protocol: filter
- Run conditions: ThrdU at 14; other dU Tyr-dU; dC Nap-dC; SB18T0.01, 37 C
Endpoint name: pKd
Formally, pKd is defined as -log10 of the concentration c, with c in mol/L.

Exercise: Give the measured pKd of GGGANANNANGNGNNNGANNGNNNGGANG [26874-29_103] .
Solution: 9.31
